System: hepatitis C replicon
Experiment: hepatitis C replicon EC50 assay
Type: cell-based
Settings: Hepatitis C virus; hepatitis C replicon; read-out: EC50
Source text: NS3-NS4 inhibition activity can be determined using known assay methods.
pEC50: −log10 of the molar value.
I'd be grateful if you could share measured pEC50 for these entries.

Enter reported pEC50 observed with hepatitis C replicon for CC(C)n1c(O[C@@H]2C[C@H]3C(=O)N[C@]4(C(=O)NS(=O)(=O)N(C)C)C[C@H]4/C=C\CCCCC[C@H](NC(=O)OC(C)(C)C)C(=O)N3C2)nc2c(-c3csc(N4CCN(C)CC4)n3)cccc21
> 8.00

Also, Cc1cccc(Cc2csc(-c3cccc4c3nc(O[C@@H]3C[C@H]5C(=O)N[C@]6(C(=O)NS(=O)(=O)N(C)C)C[C@H]6/C=C\CCCCC[C@H](NC(=O)OC(C)(C)C)C(=O)N5C3)n4C(C)C)n2)c1 please.
> 8.00

Also, CC(C)n1c(O[C@@H]2C[C@H]3C(=O)N[C@]4(C(=O)NS(=O)(=O)C5CC5)C[C@H]4/C=C\CCCCC[C@H](NC(=O)OC(C)(C)C)C(=O)N3C2)nc2c(-c3nc(C4CCNCC4)cs3)cccc21 please.
> 8.00

Also, CC(C)n1c(O[C@@H]2C[C@H]3C(=O)N[C@]4(C(=O)NS(=O)(=O)C5(C)CC5)C[C@H]4/C=C\CCCCC[C@H](NC(=O)OC(C)(C)C)C(=O)N3C2)nc2c(-c3nc(-c4ccc(C(C)(C)C)cc4)cs3)cccc21 please.
7.00 to 8.00

Also, CC(C)n1c(O[C@@H]2C[C@H]3C(=O)N[C@]4(C(=O)NS(=O)(=O)C5(C)CC5)C[C@H]4/C=C\CCCCC[C@H](NC(=O)OC4CCCC4)C(=O)N3C2)nc2c(-c3nc(Cc4ccccc4)cs3)cccc21 please.
> 8.00

Also, CC(C)n1c(O[C@@H]2C[C@H]3C(=O)N[C@]4(C(=O)NS(=O)(=O)C5(C)CC5)C[C@H]4/C=C\CCCCC[C@H](NC(=O)OC(C)(C)C)C(=O)N3C2)nc2c(-c3nc(-c4cccc(Cl)c4)cs3)cccc21 please.
7.00 to 8.00

Also, CC(C)n1c(O[C@@H]2C[C@H]3C(=O)N[C@]4(C(=O)NS(=O)(=O)C5(C)CC5)C[C@H]4/C=C\CCCCC[C@H](NC(=O)OC(C)(C)C)C(=O)N3C2)nc2c(-c3cncc(N4CCCC4)n3)cccc21 please.
> 8.00

Also, CC(C)n1c(O[C@@H]2C[C@H]3C(=O)N[C@]4(C(=O)NS(=O)(=O)C5(C)CC5)C[C@H]4/C=C\CCCCC[C@H](NC(=O)OC(C)(C)C)C(=O)N3C2)nc2c(-c3csc(N4CCN(C)CC4)n3)cccc21 please.
> 8.00

Also, CC(C)c1ccc(Cc2csc(-c3cccc4c3nc(O[C@@H]3C[C@H]5C(=O)N[C@]6(C(=O)NS(=O)(=O)C7(C)CC7)C[C@H]6/C=C\CCCCC[C@H](NC(=O)OC(C)(C)C)C(=O)N5C3)n4C(C)C)n2)cc1 please.
7.00 to 8.00

Also, CC(C)n1c(O[C@@H]2C[C@H]3C(=O)N[C@]4(C(=O)NS(=O)(=O)N(C)C)C[C@H]4/C=C\CCCCC[C@H](NC(=O)OC(C)(C)C)C(=O)N3C2)nc2c(-c3cscn3)cccc21 please.
> 8.00

Also, CC(C)(C)OC(=O)N[C@H]1CCCCC/C=C\[C@@H]2C[C@@]2(C(=O)NS(=O)(=O)C2(C)CC2)NC(=O)[C@@H]2C[C@@H](Oc3nc4c(-c5nc(C6CCCCC6)cs5)cccc4nc3C(F)(F)F)CN2C1=O please.
> 8.00

Also, COc1ccc2c(O[C@@H]3C[C@H]4C(=O)N[C@]5(C(=O)NS(=O)(=O)C6(C)CC6)C[C@H]5/C=C\CCCCC[C@H](NC(=O)OC(C)(C)C)C(=O)N4C3)cc(C(C)C)nc2c1C please.
> 8.00

Also, CC(C)n1c(O[C@@H]2C[C@H]3C(=O)N[C@]4(C(=O)NS(=O)(=O)C5(C)CC5)C[C@H]4/C=C\CCCCC[C@H](NC(=O)OC(C)(C)C)C(=O)N3C2)nc2c(-c3nc(C(F)(F)F)cs3)cccc21 please.
> 8.00

Also, CC(C)n1c(O[C@@H]2C[C@H]3C(=O)N[C@]4(C(=O)NS(=O)(=O)N(C)C)C[C@H]4/C=C\CCCCC[C@H](NC(=O)OC(C)(C)C)C(=O)N3C2)nc2c(-c3nc(-c4cccc(F)c4)cs3)cccc21 please.
7.00 to 8.00

Also, Cc1ccccc1Cc1csc(-c2cccc3c2nc(O[C@@H]2C[C@H]4C(=O)N[C@]5(C(=O)NS(=O)(=O)C6(C)CC6)C[C@H]5/C=C\CCCCC[C@H](NC(=O)OC(C)(C)C)C(=O)N4C2)n3C(C)C)n1 please.
> 8.00

Also, COc1ccc(Cc2csc(-c3cccc4c3nc(O[C@@H]3C[C@H]5C(=O)N[C@]6(C(=O)NS(=O)(=O)C7(C)CC7)C[C@H]6/C=C\CCCCC[C@H](NC(=O)OC(C)(C)C)C(=O)N5C3)n4C(C)C)n2)cc1 please.
> 8.00

Also, CC(C)(C)OC(=O)N[C@H]1CCCCC/C=C\[C@@H]2C[C@@]2(C(=O)NS(=O)(=O)C2(C)CC2)NC(=O)[C@@H]2C[C@@H](Oc3ncnc4c3CCCC4)CN2C1=O please.
7.00 to 8.00
